- TARGET OR SYSTEM: hTRPV1 (Homo sapiens, UniProt Q8NER1)
- Sequence (Q8NER1 whole entry): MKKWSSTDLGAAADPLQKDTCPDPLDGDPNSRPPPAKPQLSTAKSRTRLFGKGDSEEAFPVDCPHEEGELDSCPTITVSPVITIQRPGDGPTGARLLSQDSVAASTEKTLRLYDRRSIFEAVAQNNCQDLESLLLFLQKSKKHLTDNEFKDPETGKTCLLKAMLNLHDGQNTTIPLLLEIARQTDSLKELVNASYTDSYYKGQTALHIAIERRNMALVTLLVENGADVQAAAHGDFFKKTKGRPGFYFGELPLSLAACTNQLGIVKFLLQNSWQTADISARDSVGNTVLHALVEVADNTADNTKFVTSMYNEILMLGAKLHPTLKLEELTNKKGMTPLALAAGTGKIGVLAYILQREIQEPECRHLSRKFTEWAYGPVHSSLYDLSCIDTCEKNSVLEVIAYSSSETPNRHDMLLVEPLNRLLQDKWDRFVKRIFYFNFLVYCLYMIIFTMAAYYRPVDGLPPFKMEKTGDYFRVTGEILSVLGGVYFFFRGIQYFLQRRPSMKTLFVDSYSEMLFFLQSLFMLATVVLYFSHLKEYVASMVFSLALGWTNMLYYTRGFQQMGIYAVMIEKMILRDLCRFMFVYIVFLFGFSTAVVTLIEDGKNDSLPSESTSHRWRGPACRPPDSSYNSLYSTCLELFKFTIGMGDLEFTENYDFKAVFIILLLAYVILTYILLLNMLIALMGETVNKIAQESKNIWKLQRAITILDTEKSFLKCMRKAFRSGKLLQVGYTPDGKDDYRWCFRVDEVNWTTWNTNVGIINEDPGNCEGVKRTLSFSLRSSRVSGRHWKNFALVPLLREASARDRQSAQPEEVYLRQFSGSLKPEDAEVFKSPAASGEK
- PROTOCOL SUMMARY: ^45Ca^2+ uptake in CHO-hTRPV1 cells
- CONDITION INFO: read-out: antagonist activity (Ki), capsaicin 75 nM
REPORTED METRIC: Ki (nM)
Answers are plain numbers, in nM.

Q: I'd like to know its Ki. The molecule in question is COc1cccc(NC(=O)/C=C/c2ccc(Cl)cc2)c1 [SB366791, N-(3-methoxyphenyl)-4-chlorocinnamide]
Ans: 197

====

- TARGET OR SYSTEM: rTRPV1 (Rattus norvegicus, UniProt O35433)
- Sequence (O35433 whole entry): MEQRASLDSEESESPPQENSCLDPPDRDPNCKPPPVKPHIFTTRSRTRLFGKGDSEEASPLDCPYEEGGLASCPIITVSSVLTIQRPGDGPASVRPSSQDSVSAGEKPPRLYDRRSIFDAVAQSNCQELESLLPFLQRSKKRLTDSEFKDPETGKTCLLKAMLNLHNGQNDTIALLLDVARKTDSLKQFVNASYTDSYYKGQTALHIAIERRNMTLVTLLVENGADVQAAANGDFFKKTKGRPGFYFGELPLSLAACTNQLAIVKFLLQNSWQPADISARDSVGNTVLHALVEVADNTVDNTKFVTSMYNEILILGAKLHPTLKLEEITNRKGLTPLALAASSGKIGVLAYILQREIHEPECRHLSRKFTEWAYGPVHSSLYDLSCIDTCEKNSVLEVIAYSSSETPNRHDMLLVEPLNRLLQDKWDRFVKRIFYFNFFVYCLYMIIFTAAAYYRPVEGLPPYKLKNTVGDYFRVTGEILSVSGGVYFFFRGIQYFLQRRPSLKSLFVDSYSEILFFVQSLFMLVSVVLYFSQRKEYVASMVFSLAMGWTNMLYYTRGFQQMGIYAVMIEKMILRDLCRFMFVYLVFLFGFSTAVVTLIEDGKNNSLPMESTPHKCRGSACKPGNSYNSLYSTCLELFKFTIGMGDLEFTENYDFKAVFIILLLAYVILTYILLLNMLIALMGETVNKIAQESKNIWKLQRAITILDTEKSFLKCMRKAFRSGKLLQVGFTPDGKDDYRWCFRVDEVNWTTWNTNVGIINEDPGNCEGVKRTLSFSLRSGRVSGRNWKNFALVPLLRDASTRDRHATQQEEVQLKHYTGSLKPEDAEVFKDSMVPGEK
- PROTOCOL SUMMARY: ^45Ca^2+ uptake in CHO-rTRPV1 cells
- CONDITION INFO: read-out: antagonist activity (Ki), capsaicin 75 nM
REPORTED METRIC: pKi
One number for each entry, as −log10 of the molar value.

Q: I'd like to know its pKi. The compound in question is COc1cccc(NC(=O)/C=C/c2ccc(Cl)cc2)c1 [SB366791, N-(3-methoxyphenyl)-4-chlorocinnamide]
Ans: 6.48

====

- TARGET OR SYSTEM: rTRPV1 (Rattus norvegicus)
REPORTED METRIC: Kd

Q: I'd like to know its Kd. The compound in question is COc1cccc(NC(=O)/C=C/c2ccc(Cl)cc2)c1 [SB366791, N-(3-methoxyphenyl)-4-chlorocinnamide]
Ans: 780 nM
